- Tested on: MCF10A
- PROTOCOL: percent viability (nuclei count relative to siNT); higher = more viable cells
- EXPERIMENTAL SETUP: 20 nM; 72 h
percent viability strictly under 50% means T; at 50% or over means F.

Strictly below 50% in percent viability? UGAUAUGUUUGAUAUAUUAGGU [hsa-miR-190a]
F

Strictly below 50% in percent viability? GGCUAGCAACAGCGCUUACCU [hsa-miR-621]
F

Strictly below 50% in percent viability? CGGGGCGGCAGGGGCCUC [hsa-miR-3196]
T

Strictly below 50% in percent viability? AGGAGGGAAGGGGCUGAGAACAGGA [hsa-miR-6797-5p]
F

Strictly below 50% in percent viability? UUUCCGGCUCGCGUGGGUGUGU [hsa-miR-1180]
T

Strictly below 50% in percent viability? GGCGGCGGCGGAGGCGGGGG [hsa-miR-3960]
T

Strictly below 50% in percent viability? UGAUUGUCUUCCCCCACCCUCA [hsa-miR-6766-3p]
T

Strictly below 50% in percent viability? GAGGCAGAAGCAGGAUGACA [hsa-miR-1910-3p]
T

Strictly below 50% in percent viability? UGAAACUGGAGCGCCUGGAGGA [hsa-miR-4738-3p]
T

Strictly below 50% in percent viability? GGGAGCCAGGAAGUAUUGAUGU [hsa-miR-505-5p]
F

Strictly below 50% in percent viability? GUCACUGAUGUCUGUAGCUGAG [hsa-miR-4420]
F

Strictly below 50% in percent viability? UCAGGCUCAGUCCCCUCCCGAU [hsa-miR-484]
F

---

- Tested on: MCF10A
- PROTOCOL: one-nucleolus phenotype percent effect (relative to siNT 0% and siNOL11 100%); higher = more cells with one nucleolus (ribosome biogenesis inhibition)
- EXPERIMENTAL SETUP: 20 nM; 72 h
For each record, write down the corresponding one-nucleolus phenotype percent effect.
In your response, put the unit directly after the numeric value.

Short answer for GAGCAAUGUAGGUAGACUGUUU [hsa-miR-3908] : one-nucleolus phenotype percent effect was 89.1%

Short answer for CAGCAGCAAUUCAUGUUUUGAA [hsa-miR-424-5p] : one-nucleolus phenotype percent effect was 24%

Short answer for AGGUGGAUGCAAUGUGACCUCA [hsa-miR-3165] : one-nucleolus phenotype percent effect was 1.14%

Short answer for UGGCCCGGCGACGUCUCACGGUC [hsa-miR-4745-3p] : one-nucleolus phenotype percent effect was -29.1%

Short answer for UCUGGGCAACAAAGUGAGACCU [hsa-miR-1285-3p] : one-nucleolus phenotype percent effect was 20.6%

Short answer for UGCAGGACCAAGAUGAGCCCU [hsa-miR-1286] : one-nucleolus phenotype percent effect was 5.46%

Short answer for UGAAGCUCUAAGGUUCCGCCUGC [hsa-miR-3928-5p] : one-nucleolus phenotype percent effect was 20.8%

Short answer for AUCUGCCAGCUUCCACAGUGG [hsa-miR-4727-5p] : one-nucleolus phenotype percent effect was 17.9%

Short answer for CCUGACCCACCCCCUCCCGCAG [hsa-miR-4750-3p] : one-nucleolus phenotype percent effect was -19.1%

Short answer for UGGGGCUAGUGAUGCAGGACG [hsa-miR-4489] : one-nucleolus phenotype percent effect was 25.8%

Short answer for AGCAGCAUUGUACAGGGCUAUGA [hsa-miR-103a-3p] : one-nucleolus phenotype percent effect was 15.6%
